Recorded values, source patent US11787799B2.

system: Vero; conditions: read-out: CC50 (Yellow Fever Virus test)
I'd be grateful if you could share measured CC50 for these entries.
One number for each entry, in µM.

given smiles: CC(C)n1ncc2c(C(=O)Nc3ccc(F)cc3)cc(-c3ccsc3)nc21
target system: Vero
units symbol: µM
CC50: 11.1
//
given smiles: CC(C)n1ncc2c(C(=O)Nc3ccccc3F)cc(-c3cccs3)nc21
target system: Vero
units symbol: µM
CC50: 4.8
//
given smiles: CC(C)n1ncc2c(C(=O)Nc3ccc(F)cc3F)cc(-c3cccs3)nc21
target system: Vero
units symbol: µM
CC50: 50
//
given smiles: CC(C)n1ncc2c(C(=O)Nc3cccc(S(N)(=O)=O)c3)cc(-c3cccs3)nc21
target system: Vero
units symbol: µM
CC50: 4.8

Turning now to a further compound:
Which measured CC50 value corresponds to CC(C)n1ncc2c(C(=O)Nc3ccc(F)cc3)cc(-c3cccs3)nc21 ?
9.9
